test: The drug is tested on Z-023 corresponding to metagenome with ENA study accession number: PRJEB37062 and ENA sample accession number: ERS12561822 for biotransformation under anaerobic condition. The drug concentrations were measured over 9 timepoints collected between 0 and 24 hours of incubation by liquid-chromatography-coupled mass spectrometry (LC–MS); settings: 2 µM; note: call rule not given here
Reported Metric: Bacterial Biotransformation

Field: example entries. Status: answers known.
> print(dat)
                                   molecule             readout.value
1  CCN1CCCC1CNC(=O)c1cc(S(N)(=O)=O)ccc1OC (stereo not drawn) [SULPIRIDE]  Compound NOT metabolized
2  CN(C)CC(c1ccc(O)cc1)C1(O)CCCCC1.O=C(O)CCC(=O)O (stereo not drawn) [DESVENLAFAXINE SUCCINATE]  Compound NOT metabolized
3  CCCc1nn(C)c2c(=O)[nH]c(-c3cc(S(=O)(=O)N4CCN(C)CC4)ccc3OCC)nc12.O=C(O)CC(O)(CC(=O)O)C(=O)O [SILDENAFIL CITRATE]      Compound metabolized
4                 Nc1nc2ccc(OC(F)(F)F)cc2s1      Compound metabolized
5  NC(CO)(CO)CO.O=C(c1ccccc1)c1ccc2n1CCC2C(=O)O (stereo not drawn)      Compound metabolized

Lookup: Give the reported Bacterial Biotransformation for this molecule. CN1CCc2c(c3ccccc3n2Cc2ccccc2)C1.CN1CCc2c(c3ccccc3n2Cc2ccccc2)C1.O=S(=O)(O)c1cccc2c(S(=O)(=O)O)cccc12
Found: Compound NOT metabolized

Lookup: Give the reported Bacterial Biotransformation for this molecule. N#Cc1ccc(C(c2ccc(C#N)cc2)n2cncn2)cc1
Found: Compound metabolized

Lookup: Give the reported Bacterial Biotransformation for this molecule. CN1CCN(C2=Nc3cc(Cl)ccc3Nc3ccccc32)CC1
Found: Compound metabolized

====

assay: The drug is tested on WLS-082 corresponding to human gut metagenome with ENA study accession number: PRJEB37062 and ENA sample accession number: ERS12561751 for biotransformation under anaerobic condition. The drug concentrations were measured over 9 timepoints collected between 0 and 24 hours of incubation by liquid-chromatography-coupled mass spectrometry (LC–MS); details: 2 µM
Reported Metric: Bacterial Biotransformation

Field: example entries. Status: answers known.
> print(dat)
                                   compound             readout.value
1  CCCCC1=NC2(CCCC2)C(=O)N1Cc1ccc(-c2ccccc2-c2nnn[nH]2)cc1      Compound metabolized
2  CC(=O)OCC(=O)[C@@]1(O)[C@@H](C)C[C@H]2[C@@H]3CCC4=CC(=O)C=C[C@]4(C)[C@@]3(F)[C@@H](O)C[C@@]21C [BETAMETHASONE ACETATE]      Compound metabolized
3  CCN(CC)CCOCCOC(=O)C1(c2ccccc2)CCCC1.O=C(O)CC(O)(CC(=O)O)C(=O)O [CARBETAPENTANE CITRATE]      Compound metabolized
4    OCCOCCN1CCN(C2=Nc3ccccc3Sc3ccccc32)CC1  Compound NOT metabolized
5  COc1cc2nc(N3CCN(C(=O)c4ccco4)CC3)nc(N)c2cc1OC      Compound metabolized

Lookup: Give the reported Bacterial Biotransformation for this compound. CC(C)OC(=O)C(C)(C)Oc1ccc(C(=O)c2ccc(Cl)cc2)cc1 [FENOFIBRATE]
Found: Compound NOT metabolized

Lookup: Give the reported Bacterial Biotransformation for this compound. COCCc1ccc(OCC(O)CNC(C)C)cc1.COCCc1ccc(OCC(O)CNC(C)C)cc1.O=C(O)C(O)C(O)C(=O)O (stereo not drawn) [METOPROLOL TARTRATE]
Found: Compound NOT metabolized

Lookup: Give the reported Bacterial Biotransformation for this compound. Cc1ccc(/C(=C\CN2CCCC2)c2ccccn2)cc1
Found: Compound NOT metabolized

====

conditions: human gut metagenome, 24 h, 2 µM
Reported Metric: Bacterial Biotransformation

Field: example entries. Status: answers known.
> print(dat)
                                   compound             readout.value
1  C[C@@H]1CC[C@H]2[C@@H](C)C(=O)O[C@@H]3O[C@@]4(C)CC[C@@H]1[C@]32OO4      Compound metabolized
2  O=C(O)COCCN1CCN(C(c2ccccc2)c2ccc(Cl)cc2)CC1 (centres undefined)      Compound metabolized
3       CCC(=O)NCC[C@@H]1CCc2ccc3c(c21)CCO3      Compound metabolized
4  CCN(CC)C(C)CN1c2ccccc2Sc2ccccc21 (centres undefined)      Compound metabolized
5  CC(C)(C(=O)O)c1ccc(C(O)CCCN2CCC(C(O)(c3ccccc3)c3ccccc3)CC2)cc1 (centres undefined) [FEXOFENADINE]  Compound NOT metabolized

Lookup: Give the reported Bacterial Biotransformation for this compound. CC(CN(C)C)CN1c2ccccc2CCc2ccccc21.O=C(O)/C=C\C(=O)O (centres undefined) [TRIMIPRAMINE MALEATE]
Found: Compound metabolized

Lookup: Give the reported Bacterial Biotransformation for this compound. Nc1nc2ccc(OC(F)(F)F)cc2s1
Found: Compound metabolized

Lookup: Give the reported Bacterial Biotransformation for this compound. NC12CC3CC(CC(C3)C1)C2
Found: Compound NOT metabolized

Lookup: Give the reported Bacterial Biotransformation for this compound. Cc1nc(-c2ccc(OCC(C)C)c(C#N)c2)sc1C(=O)O
Found: Compound metabolized

====

settings: human gut metagenome, 24 h, 2 µM
Reported Metric: Bacterial Biotransformation

Field: example entries. Status: answers known.
> print(dat)
                                   compound              reported.metric             readout.value
1       CCC(=O)NCC[C@@H]1CCc2ccc3c(c21)CCO3  Bacterial Biotransformation      Compound metabolized
2                      CCOc1ccc(NC(C)=O)cc1  Bacterial Biotransformation  Compound NOT metabolized
3  Cc1nc2n(c(=O)c1CCN1CCC(c3noc4cc(F)ccc34)CC1)CCCC2O (stereo not drawn)  Bacterial Biotransformation      Compound metabolized
4  NC(=O)N1c2ccccc2CC(=O)c2ccccc21 [OXCARBAZEPINE]  Bacterial Biotransformation      Compound metabolized
5  CN1C(C(=O)Nc2ccccn2)=C(O)c2sccc2S1(=O)=O  Bacterial Biotransformation  Compound NOT metabolized

Lookup: Give the reported Bacterial Biotransformation for this compound. CC(C(=O)O)c1ccc2c(c1)Cc1cccnc1O2 (stereo not drawn)
Found: Compound metabolized

Lookup: Give the reported Bacterial Biotransformation for this compound. CCN(CC)CCNC(=O)c1cc(Cl)c(N)cc1OC [METOCLOPRAMIDE]
Found: Compound NOT metabolized

Lookup: Give the reported Bacterial Biotransformation for this compound. CCCc1nc2c(C)cc(-c3nc4ccccc4n3C)cc2n1Cc1ccc(-c2ccccc2C(=O)O)cc1
Found: Compound metabolized

====

details: human gut metagenome, 24 h, 2 µM
Reported Metric: Bacterial Biotransformation

Field: example entries. Status: answers known.
> print(dat)
                                   compound              reported.metric             readout.value
1                 COc1c2occc2cc2ccc(=O)oc12  Bacterial Biotransformation      Compound metabolized
2        OC(Cn1cncn1)(Cn1cncn1)c1ccc(F)cc1F  Bacterial Biotransformation      Compound metabolized
3           Cc1ccnc2c1NC(=O)c1cccnc1N2C1CC1  Bacterial Biotransformation  Compound NOT metabolized
4  CCN(CC)CCOCCOC(=O)C1(c2ccccc2)CCCC1.O=C(O)CC(O)(CC(=O)O)C(=O)O [CARBETAPENTANE CITRATE]  Bacterial Biotransformation  Compound NOT metabolized

Proceed to the following item.
Lookup: Give the reported Bacterial Biotransformation for this compound. CC(=O)OCC(=O)[C@@]12N=C(C)O[C@@H]1C[C@H]1[C@@H]3CCC4=CC(=O)C=C[C@]4(C)[C@H]3[C@@H](O)C[C@@]12C
Found: Compound metabolized

====

experiment: The drug is tested on WLS-038 corresponding to human gut metagenome with ENA study accession number: PRJEB37062 and ENA sample accession number: ERS12561745 for biotransformation under anaerobic condition. The drug concentrations were measured over 9 timepoints collected between 0 and 24 hours of incubation by liquid-chromatography-coupled mass spectrometry (LC–MS); settings: 2 µM
Reported Metric: Bacterial Biotransformation

> print(dat)
                                   compound             readout.value
1  C=CCN1CC[C@]23c4c5ccc(O)c4O[C@H]2C(=O)CC[C@@]3(O)[C@H]1C5  Compound NOT metabolized
2  COc1ccccc1OCC(O)COC(N)=O (stereo not given)  Compound NOT metabolized
3  C=CCc1ccccc1OCC(O)CNC(C)C (stereo not given)  Compound NOT metabolized
4                     NC12CC3CC(CC(C3)C1)C2  Compound NOT metabolized
